- STUDY TARGET: hTRPV1 (Homo sapiens)
- Sequence (Q8NER1 whole entry): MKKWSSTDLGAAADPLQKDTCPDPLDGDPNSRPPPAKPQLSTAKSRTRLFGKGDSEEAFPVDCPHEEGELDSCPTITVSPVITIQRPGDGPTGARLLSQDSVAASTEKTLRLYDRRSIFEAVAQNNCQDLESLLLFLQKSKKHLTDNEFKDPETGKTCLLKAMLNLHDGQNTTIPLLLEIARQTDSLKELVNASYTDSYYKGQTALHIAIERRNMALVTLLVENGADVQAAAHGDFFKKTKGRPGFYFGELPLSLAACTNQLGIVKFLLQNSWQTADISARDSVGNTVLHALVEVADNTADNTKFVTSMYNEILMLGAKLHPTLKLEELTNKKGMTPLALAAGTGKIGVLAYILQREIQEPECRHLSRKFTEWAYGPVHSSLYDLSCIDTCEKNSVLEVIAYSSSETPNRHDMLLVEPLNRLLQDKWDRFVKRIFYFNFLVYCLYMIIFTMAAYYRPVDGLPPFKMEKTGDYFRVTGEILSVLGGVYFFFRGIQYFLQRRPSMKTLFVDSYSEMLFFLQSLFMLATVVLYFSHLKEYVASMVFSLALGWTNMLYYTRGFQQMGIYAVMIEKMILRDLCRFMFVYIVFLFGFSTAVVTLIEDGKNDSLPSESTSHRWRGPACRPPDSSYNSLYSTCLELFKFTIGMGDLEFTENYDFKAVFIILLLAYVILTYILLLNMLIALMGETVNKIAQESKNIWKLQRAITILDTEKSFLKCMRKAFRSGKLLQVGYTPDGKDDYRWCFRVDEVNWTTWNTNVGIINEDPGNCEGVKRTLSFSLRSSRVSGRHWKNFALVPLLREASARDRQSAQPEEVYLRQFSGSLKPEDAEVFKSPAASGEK
- ASSAY COMMENT: whole-cell patch-clamp, capsaicin-evoked currents in HEK293 cells expressing hTRPV1
QUANTITY: IC50 (nM)
Form entry: value (nM) — number only.

Param readout = IC50; param system = hTRPV1 (Homo sapiens); param query = CCCCCCCCCCCC(=O)OCC(=O)NCc1cc(OC)c(O)cc1I ; response: value
900
